- assayed-system: T1, BCMA peptide 30SNTPPLTCQR39 (human)
- T1 construct: Peptide of the CLIPS library; recognised in a linear form
- T1 peptide: SNTPPLTCQR
- assay-comment: CLIPS peptide array ELISA

- binder: "BCMA-5 anti-BCMA scFv (scFv, VH-(G4S)3-VL scFv) scFv: QVQLVQSGGGLVQPGRSLRLSCTASGFTFGDYAMSWFRQAPGKGLEWVGFIRSKAYGGTTEYAASVKGRFTISRDDSKSIAYLQMNSLKTEDTAVYYCAAWSAPTDYWGQGTLVTVSSGGGGSGGGGSGGGGSDIVMTQSPDSLAVSLGERATINCKSSQSVLYSSNNKNYLAWYQQKPGQPPKLLIYWASTRESGVPDRFSGSGSGTDFTLTISSLQAEDVAVYYCQQYYSTPWTFGQGTKVDIK"
  binding result: "binds"

Numbers sourced from patent US20200392236A1.
